These measurements were taken from PubChem BioAssay AID1159580.

normalized growth values for the compounds below.
# procedure.summary: chemical genetic growth profiling, strain panel (AID 1159580);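 note: tested at 20 µM; growth read once vehicle control cultures reached saturation at 30 °C; 1 = growth at the plate median or of vehicle wells; lower values mean less growth of the strain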
# study.conditions: S. cerevisiae deletion strains, growth OD, locus YCL029C, strain bik1, active compounds read low
Out of some 5,500 compounds screened, about 2,000 (36%) were called active. Another 18% or so got no clear call; they are omitted. The list shows a part of the results.

# compound, normalized growth
data = [
    ("CC1=C2[C@](C)(C=CC1=O)C[C@H](O)[C@H]1[C@H](C)C(=O)O[C@]21C", "1.03 (inactive)"),
    ("CCN(CC)CCNC(=O)COc1ccc(OC)cc1", "0.983 (inactive)"),
    ("CC(C(=O)O)c1ccc(N2Cc3ccccc3C2=O)cc1 (configuration not stated)", "0.996 (inactive)"),
    ("COP(=S)(OC)SCn1nnc2ccccc2c1=O", "0.974 (inactive)"),
    ("CC1=C2CCC3C(CC[C@]4(C)C(=O)CCC34)[C@@]2(C)CCC1=O (some centres not stated)", "0.969 (inactive)"),
    ("Cc1ncc([N+](=O)[O-])n1CCO", "0.986 (inactive)"),
    ("COc1cc(OC)cc(OC)c1", "0.743 (active)"),
    ("C[C@]12C=CC(=O)C=C1CCC1C2C(=O)C[C@@]2(C)C1CC[C@]2(O)C(=O)CO (some centres not stated)", "0.978 (inactive)"),
    ("CC(=O)OC1CCC23C(=O)OC45CCC(C6=CC(=O)OC6)C4(C)CCC2C5CCC3(O)C1 (configuration not stated)", "1.02 (inactive)"),
    ("COc1cc(O)c(C(=O)O)c(O)c1", "1.01 (inactive)"),
    ("O=[N+]([O-])/N=C1/NCCN1Cc1ccc(Cl)cc1", "0.99 (inactive)"),
    ("C[C@]12CCC3C(CC[C@H]4C[C@@H](O)CC[C@]34C)C1CCC2=O (some centres not stated)", "0.842 (active)"),
]

* * *

# procedure.summary: chemical genetic growth profiling, strain panel (AID 1159580);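 note: tested at 20 µM; growth read once vehicle control cultures reached saturation at 30 °C; 1 = growth at the plate median or of vehicle wells; lower values mean less growth of the strain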
# study.conditions: S. cerevisiae deletion strains, growth OD, locus YJL157C, strain FAR1, active compounds read low
Screen size: about 5,500 compounds; about 2,000 (36%) were called active. Not shown: some 18% with an inconclusive outcome. This is one part of the list.
Parameter normalized growth: see the listing below.

# compound, normalized growth
rows = [
    ("CCC1(c2ccccc2)OC(c2cc(Cl)cc(Cl)c2O)Nc2ccccc21 (stereo not drawn)", 0.564),
    ("CCCCCc1ccc(S(=O)(=O)Nc2ncc(C)cc2Br)cc1", 0.863),
    ("N#CC(C#N)=NNc1ccc(C(F)(F)F)cc1", 0.106),
]

* * *

Quick list: normalized growth per entry.
# procedure.summary: chemical genetic growth profiling, strain panel (AID 1159580);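 note: tested at 20 µM; growth read once vehicle control cultures reached saturation at 30 °C; 1 = growth at the plate median or of vehicle wells; lower values mean less growth of the strain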
# study.conditions: S. cerevisiae deletion strains, growth OD, locus YOR144C, strain elg1, active compounds read low
Among all 5,500 compounds or so, about 2,000 (36%) were called active. Another 18% or so got no clear call; they are omitted. This is one part of the list.
property.label: normalized growth

# compound, observed.result
rows = [
    ("CC(=O)Oc1ccc2c(c1)CCC1C2CC[C@@]2(C)C1CC[C@@H]2OC(C)=O (stereo partly specified)", 0.968),
    ("CC(C)=CCc1c(O)cc2occ(-c3ccc4c(c3)OCO4)c(=O)c2c1O", 1.02),
    ("CC1(C)C[C@@H]2C(=O)CC[C@H]3O[C@]3(C)CC[C@H]21", 0.995),
    ("CCCC(=O)Nc1ncnc2c1ncn2C1O[C@@H]2COP(=O)(O)O[C@H]2[C@H]1OC(=O)CCC (stereo partly specified)", 1.02),
    ("CC(C)(O)CC[C@@H](O)[C@](C)(O)C1CC[C@@]2(O)C3=CC(=O)C4C[C@@H](O)[C@@H](O)C[C@]4(C)C3CC[C@]12C (stereo partly specified)", 0.996),
    ("COc1cc(O)c(C)c(O)c1", 1.01),
    ("CCCCCN=C(N)N/N=C\\c1c[nH]c2ccc(OC)cc12", 1.01),
    ("O=C(O)c1cc2cc(Cl)ccc2[nH]1", 0.989),
    ("COc1cc(O)c(C(=O)c2ccccc2)c(OC)c1", 0.983),
    ("c1coc(CNc2ncnc3nc[nH]c23)c1", 0.99),
    ("COc1ccc2c(=O)c(CC(=O)O)coc2c1", 0.993),
    ("CN1CCN(C(c2ccccc2)c2ccccc2)CC1", 0.96),
    ("CC1(C)C=Cc2c(cc3occ(-c4ccc5c(c4)OCO5)c(=O)c3c2O)O1", 1.02),
    ("CCC(=O)O[C@H]1CCC2C3CCc4cc(O)ccc4C3CC[C@@]21C (stereo partly specified)", 1.01),
    ("CCNc1nc(Cl)nc(NC(C)C)n1", 1.02),
    ("C[C@]12C=CC(=O)C=C1CCC1C2CC[C@]2(C)C(=O)CCC12 (stereo partly specified)", 0.977),
    ("C[C@H]1C(=O)O[C@@H]2CCN3CC=C(COC(=O)[C@](C)(O)[C@]1(C)O)[C@H]23", 0.988),
    ("CC(C(=O)O)c1ccc(N2Cc3ccccc3C2=O)cc1 (stereo unspecified)", 0.995),
    ("CC(=O)O[C@@H]1CC2C(C)(C)C(=O)[C@@H]3O[C@@H]3[C@]2(C)C2CC[C@]3(C)C(=CC(=O)O[C@H]3c3ccoc3)[C@@]21C (stereo partly specified)", 0.988),
    ("O=c1c(-c2ccc3c(c2)OCO3)coc2cc(O)ccc12", 0.98),
    ("Nc1ncnc2nc[nH]c12", 0.885),
    ("O=c1[nH]cnc2nc[nH]c12", 0.989),
    ("COc1c2c(cc3occ(-c4ccc5c(c4)OCO5)c(=O)c13)OC(C)(C)C=C2", 0.984),
    ("COC(=O)C[C@H]1C(C)(C)C(OC(C)=O)[C@]2(O)C=C3C4CC(=O)O[C@@H](c5ccoc5)[C@]4(C)CCC3[C@@]1(C)C2=O (stereo partly specified)", 1),
    ("CC(C)=CCC1=C(O)c2ccccc2C(=O)C1=O", 0.933),
    ("CN1Cc2c(N)cccc2C(c2ccccc2)C1 (stereo unspecified)", 1.01),
]
